# activity change, negative = inhibition values compiled below
- measurementDescription: AP1 Signaling Pathway (AID 357);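 also: ME-180 reporter cells stimulated with EGF at its EC50 level; % is scaled to controls: 0 for no effect and ±100 for the full control effect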
- particulars: ME-180 (cervical carcinoma) AP-1-bla reporter, EGF-induced, beta-lactamase ratio, 5 h; at 17.2 µM (top of the series) unless noted
Results filed as inconclusive are left out. Calls of active or inactive are those of the source. Calls follow the shape of the dose curve; as a rule, active = well fitted curve in either direction with a large enough effect (not every such curve was filed as active); inconclusive = small, poorly fitted or top-dose-only effect, or another doubt; inactive = flat fitted curve, though single readings scatter.
measure: activity change, negative = inhibition

molecule=O=c1[nH]c(=O)n(-c2cccc3ccccc23)c(O)c1C=NCCCn1ccnc1 reported="14.5% (inactive)"
molecule=CCCc1nc2ccccc2c(=O)n1-c1ccccc1OC reported="-13.4% (inactive)"
molecule=COc1cccc(-n2c(C)nc3ccccc3c2=O)c1 reported="10.2% (inactive)"
molecule=CCN(CC)CCCNC(=O)c1c(O)c2ccccc2n(Cc2ccccc2)c1=O reported="27.1% (inactive)"
molecule=CC1(C)CC(=O)C(C=NCCN2CCN(C(=O)Cc3ccc(F)cc3)CC2)=C(O)C1 reported="-0.912% (inactive)"
molecule=CC1(C)[C@@H]2CC[C@]1(C)CN(CCC[N+](C)(C)C)C2 reported="-4.07% [at 7.69 µM] (inactive)"
molecule="CC(=O)OC1(Cc2ccccc2)CN2CCC1c1ccccc12 (centres undefined)" reported="-0.0283% (inactive)"
molecule=CC[C@H](CO)NC(=O)[C@@H]1C=C2c3cccc4c3c(cn4C)C[C@@H]2N(C)C1 reported="-3.22% [at 38 µM] (inactive)"
molecule=CC(=O)C1(c2ccccc2)CCNCC1 reported="6.36% (inactive)"
molecule="C=CCOC(=O)C1=C(C)OC(N)=C(C#N)C12C(=O)N(CN1CCOCC1)c1ccccc12 (centres undefined)" reported="2.42% (inactive)"
molecule=CC(C)n1cc2c3c(cccc31)[C@@H]1C[C@H](C(=O)O[C@@H](C)[C@H](C)O)CN(C)[C@H]1C2 reported="1.23% [at 38 µM] (inactive)"
molecule=CN1C[C@@H](CNC(=O)OCc2ccccc2)C[C@H]2c3cccc4c3c(cn4C)C[C@@H]21 reported="29.6% [at 38 µM] (inactive)"
molecule=Cn1c(O)c(C=NCCCNC2CCCCC2)c(=O)n(C)c1=O reported="3.35% (inactive)"
molecule=C=CCN1CC[C@@]23CCCC[C@@H]2[C@@H]1Cc1ccc(O)cc13 reported="-10.4% [at 38 µM] (inactive)"
molecule=CN(C)CCOC(=O)c1cn(Cc2ccccc2)c2ccccc12 reported="16% (inactive)"
molecule=CCN(CC)c1ccc(N=Cc2c(O)n(-c3ccccc3C)c(=O)[nH]c2=O)cc1 reported="-21.6% (inactive)"
molecule=CC(C)OC(=O)c1c(N)n(Cc2ccco2)c2nc3ccccc3nc12 reported="-15.7% (inactive)"
molecule="CCCCSP1(=S)NCCCO1 (centres undefined)" reported="2.22% (inactive)"
molecule=O=C(CN1CCN(CCO)CC1)Nc1ccc(Cl)cc1C(=O)c1ccccc1 reported="3.2% (inactive)"
molecule=CCOc1ccccc1-n1c(O)c(C=Nc2ccc(N(CC)CC)cc2)c(=O)[nH]c1=O reported="3.1% (inactive)"
molecule=COc1ccc(C(=O)CC2C(=O)N(C)C(=O)N(C)C2=O)cc1 reported="8.4% (inactive)"
molecule=CC(C)(C)OC(=O)c1c(N)n(Cc2ccco2)c2nc3ccccc3nc12 reported="-26.4% (inactive)"
molecule="CCCC[N+]1(C)[C@@H]2CC(OC(=O)[C@@H](CO)c3ccccc3)C[C@H]1[C@H]1O[C@H]12 (some centres undefined)" reported="5.93% [at 38 µM] (inactive)"
molecule="CC(=O)OC1(c2ccc(C)cc2)CN2CCC1c1ccccc12 (centres undefined)" reported="7.68% (inactive)"
molecule=C=CCN1C[C@@H](C)N([C@H](c2ccc(C(=O)N(CC)CC)cc2)c2cccc(OC)c2)C[C@H]1C reported="-9.21% [at 38 µM] (inactive)"
molecule=CC[C@H](CO)NC(=O)[C@@H]1C=C2c3cccc4[nH]cc(c34)C[C@@H]2N(C)C1 reported="2.51% [at 38 µM] (inactive)"
molecule=CCOC(=O)[C@@]1(C#N)[C@@H]2C=CC(C(N)=O)=CN2[C@@H](C(N)=O)[C@@H]1c1cccc(Cl)c1 reported="-3.06% (inactive)"
molecule=CN(C)[C@H]1C(=O)C(C(N)=O)=C(O)[C@]2(O)C(=O)C3=C(O)c4c(O)cccc4[C@@](C)(O)[C@H]3C[C@@H]12 reported="11.4% (inactive)"
molecule=N[C@@H]1CCc2cc(O)c(O)cc2C1 reported="-9.85% [at 38 µM] (inactive)"
molecule=CNc1ccc2oc(C[C@@H]3O[C@@]4(CC[C@H]3C)O[C@@H]([C@@H](C)C(=O)c3ccc[nH]3)[C@@H](C)C[C@H]4C)nc2c1C(=O)O reported="6.83% [at 38 µM] (inactive)"
molecule="CN1CC=C2C(C#N)=C(N)C(C#N)(C#N)C(c3ccncc3)C2C1 (centres undefined)" reported="21.4% (inactive)"
molecule=CCCCSP1(=S)NCCCN1 reported="-7.63% (inactive)"
molecule=CCc1nc(N2CCNCC2)c(C#N)c2c1CSC(C)(C)C2 reported="-1.4% (inactive)"
molecule=O=c1[nH]c(=O)n(C2CCCCC2)c(O)c1C=NCCCn1ccnc1 reported="0.159% (inactive)"

Origin of values: PubChem BioAssay (NCATS)
